- Measured on: Human recombinant full length HDAC1 (Homo sapiens (Human))
- Sequence (Q13547 whole entry): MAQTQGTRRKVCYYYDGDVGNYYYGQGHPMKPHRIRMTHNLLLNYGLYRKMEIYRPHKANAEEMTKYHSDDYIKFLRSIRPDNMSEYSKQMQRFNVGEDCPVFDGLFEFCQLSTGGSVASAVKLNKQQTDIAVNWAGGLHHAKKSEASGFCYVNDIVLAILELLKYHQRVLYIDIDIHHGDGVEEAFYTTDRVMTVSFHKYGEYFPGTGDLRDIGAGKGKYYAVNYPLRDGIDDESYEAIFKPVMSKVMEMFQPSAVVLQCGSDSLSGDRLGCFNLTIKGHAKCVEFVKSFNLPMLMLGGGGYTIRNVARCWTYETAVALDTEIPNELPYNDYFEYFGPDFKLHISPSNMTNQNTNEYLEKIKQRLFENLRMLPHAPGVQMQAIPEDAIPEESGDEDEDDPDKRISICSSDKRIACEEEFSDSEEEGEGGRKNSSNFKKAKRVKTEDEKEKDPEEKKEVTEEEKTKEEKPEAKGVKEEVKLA
- Procedure summary: Test 3: HDAC1 assay
- Experimental parameters: substrate 5 μM acetyl-Gly-Ala-Lys(acetyl)-AMC
We begin with a simple list: items and their reported IC50.
Measured parameter: IC50

>>> print(df.to_string())
                                    molecule   result
 0  O=S(=O)(NCCCO)c1ccc(-c2noc(C(F)(F)F)n2)cc1  > 10 µM
 1  O=C(Nc1cccnc1)c1ccc(-c2noc(C(F)(F)F)n2)cc1  > 10 µM
 2  O=C(Nc1ccnc(O)c1)c1ccc(-c2noc(C(F)(F)F)n2)cc1  > 10 µM
 3  CN(C)CCCN(C)S(=O)(=O)c1ccc(-c2noc(C(F)(F)F)n2)cc1  > 10 µM
 4  O=S(=O)(Nc1ccccc1Cl)c1ccc(-c2noc(C(F)(F)F)n2)cc1  > 10 µM
 5  CCC(CO)NC(=O)c1ccc(-c2noc(C(F)(F)F)n2)cc1 (stereo not drawn)  > 10 µM
 6  O=C(c1ccc(-c2noc(C(F)(F)F)n2)cc1)N1CCC(Cc2ccccc2)CC1  > 10 µM
 7  CNC(=O)CNC(=O)c1ccc(-c2noc(C(F)(F)F)n2)cc1  > 10 µM
 8   COCCNC(=O)Cc1ccc(-c2noc(C(F)(F)F)n2)cc1  > 10 µM
 9  CCCCN(C)C[C@@H](C)NC(=O)c1ccc(-c2noc(C(F)(F)F)n2)cc1   1.2 µM
10  CN1C(C)(C)CC(NC(=O)c2ccc(-c3noc(C(F)(F)F)n3)cc2)CC1(C)C  > 10 µM
11  O=C(Nc1ccccc1)c1ccc(-c2noc(C(F)(F)F)n2)cc1  > 10 µM
12  CCN(CC)CCNC(=O)c1ccc(-c2noc(C(F)(F)F)n2)cc1   2.9 µM
13  CN(C)CCNC(=O)c1ccc(-c2noc(C(F)(F)F)n2)cc1   7.6 µM
14  O=C(NCc1ccc(CN2CCOCC2)cc1)c1ccc(-c2noc(C(F)(F)F)n2)cc1  > 10 µM
15  CN(C)C1CCN(C(=O)c2ccc(-c3noc(C(F)(F)F)n3)cc2)CC1  > 10 µM
16  CCOC(=O)CNC(=O)Cc1ccc(-c2noc(C(F)(F)F)n2)cc1  > 10 µM
17  O=C(N[C@@H]1CCNC1)c1ccc(-c2noc(C(F)(F)F)n2)cc1  > 10 µM
